- Study Target: T1, recombinant human CTGF-Fc protein (Creative Biomart) (human)
- T1 construct: Bought; also called human CTGF with a human IgG1 Fc Tag
- T1 sequence (chain, as listed by the source limits assumed): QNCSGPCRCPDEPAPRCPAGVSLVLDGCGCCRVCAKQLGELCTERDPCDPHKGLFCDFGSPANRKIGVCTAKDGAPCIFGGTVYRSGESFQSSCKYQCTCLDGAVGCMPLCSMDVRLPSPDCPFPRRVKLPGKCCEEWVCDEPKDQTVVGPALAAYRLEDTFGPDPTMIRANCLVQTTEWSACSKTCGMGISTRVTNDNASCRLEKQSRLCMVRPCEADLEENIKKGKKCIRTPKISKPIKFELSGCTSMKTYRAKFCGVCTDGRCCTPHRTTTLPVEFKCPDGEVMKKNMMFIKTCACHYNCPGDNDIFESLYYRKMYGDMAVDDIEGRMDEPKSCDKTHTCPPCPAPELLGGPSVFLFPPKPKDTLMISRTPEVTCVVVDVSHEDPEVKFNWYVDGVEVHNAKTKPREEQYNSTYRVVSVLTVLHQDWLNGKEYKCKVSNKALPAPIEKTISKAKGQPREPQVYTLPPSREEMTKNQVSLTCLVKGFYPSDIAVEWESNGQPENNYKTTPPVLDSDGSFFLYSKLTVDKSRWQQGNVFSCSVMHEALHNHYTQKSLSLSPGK
- Protocol Text: SPR (Biacore)
Below, each entry is listed with its recorded koff.
Just the number please, in s⁻¹, no unit attached.

Solved entries:
lipocalin mutein of SEQ ID NO: 21 (designed binder, also called hNGAL mutein; not shown: C-terminal His-tag) QDSTSDLIPAPPLSKVPLQQNFQDNQFQGKWYVVGLAGNAILREDKQPAKMFATIYELKEDKSYDVTSVRFEAKSCSYTIKTFVPGSQPGEFTAGNIKSAPGQTSTLVRVVSTNYNQHAMVFFKAVRGARESFNIALYGRTKELTSELKENFIRFSKSLGLPENHIVFPVPIDQCIDG : 6.63e-05
lipocalin mutein of SEQ ID NO: 15 (designed binder, also called hNGAL mutein; not shown: C-terminal His-tag) QDSTSDLIPAPPLSKVPLQQNFQDNQFQGKWYVVGLAGNAILREDKQPAKMFATIYELKEDKSYDVTSVRFEAKSCKYTIKTFVPGSQPGEFTAGYIKSAPGQTSTLVRVVSTNYNQHAMVFFKHVTQNREIFVITLYGRTKELTSELKENFIRFSKSLGLPENHIVFPVPIDQCIDG : 4.47e-05

Now look at this entry.
*Q* Which measured koff value corresponds to lipocalin mutein of SEQ ID NO: 26 (designed binder, also called hNGAL mutein; not shown: C-terminal His-tag) QDSTSDLIPAPPLSKVPLQQNFQDNQFQGKWYVVGLAGNYRLREDKDPSKMGATIYELKEDKSYDVTQVQFDDKKCLYVIETFVPGSQPGEFTLGNIKVYPTLESQLVRVVSTNYNQHAMVFFKKVYQNREVFWITLYGRTKELTSELKENFIRFSKSLGLPENHIVFPVPIDQCIDG ?
*A* 3.06e-05
